# System: A2780/cp70
# testSummary: Inhibition of cell growth, cisplatin resistant A2780/cp70 cell line
# Type: cell-based, human
# condition: A2780/cp70 cisplatin resistant; read-out: Inhibition of cell growth A2780/cp70 nM (IC50)
measurementKind: IC50 (nM)

CN(C)CCNc1ccc(NCCN2CCCCC2CCl)c2c1C(=O)c1c(O)ccc(O)c1C2=O (stereo not shown) [CAQ183M]
69
CN(C)CCNc1ccc(NCCN2CCCC2CCl)c2c1C(=O)c1c(O)ccc(O)c1C2=O (stereo not shown) [CAQ176M]
79
CN(C)CCNc1ccc(NCCN2CCC(Cl)CC2)c2c1C(=O)c1c(O)ccc(O)c1C2=O
535
CN(C)CCNc1ccc(NCCN2C(CCl)CCCC2CCl)c2c1C(=O)c1c(O)ccc(O)c1C2=O (stereo not shown) [CAQ187M]
357
CN(C)CCNc1ccc(NCCN2CCCC(Cl)C2)c2c1C(=O)c1c(O)ccc(O)c1C2=O (stereo not shown) [CAQ166M]
63
CN(C)CCNc1ccc(NCCN2CCC(Cl)C2)c2c1C(=O)c1c(O)ccc(O)c1C2=O (stereo not shown) [CAQ188M]
96
